# Tested on: MS2 coat protein
# protocolText: apparent Kd, MS2 coat protein; higher = weaker binding; RNA-MaP array
# setupConditions: ligand present: flavin mononucleotide; designed as: OFF switch for flavin mononucleotide
readoutKind: apparent Kd

Examples with answers:
>  <orderedResidues>
AGAUUUUGCCAAGGAUAUUCGAUGCAUCAUGACAUGAGGAUCACCCAUGUAUAACGACUUGGGCUGAAGAAGGUGGACCAAGCU

>  <apparent Kd>
12 nM

$$$$
>  <orderedResidues>
CCACUACAUGAGGAUCACCCAUGUCAGGAUAUCAACCACGCCUCUCCUUGGACGUAGAUGAGAAGGGACGUGGG

>  <apparent Kd>
28.2 nM

$$$$
>  <orderedResidues>
CAUUACCAUGUUAGGAUAUCCUGCGGAAUUGCCCUGGAGAAGGAACAUGAGGAUCACCCAUGUGCACAAACAAC

>  <apparent Kd>
26.1 nM

$$$$

Q: Using the record for "CGAACAUGAGGAUCACCCAUGUGUUUCCUUGGUAGACGACAUAGAAGGGCCGUAAAUUACAGCGGGCAGGAUAUAUGACUUAAG" , report its apparent Kd.
Result: 137 nM

Q: For "CGCAAGAUCUUAGGAUAUCUGUGAGCCAAGACUAGAGAAGGAAGGAGGCUGUGCAACAUGAGGAUCACCCAUGUAUCCCGUGCA" , what is its reported apparent Kd?
Result: 35.4 nM

Q: Which apparent Kd value is on record for "CAGGGAAGAUGAGGAUAUCAUAGGAGGAUAUGUCGACACAUGAGGAUCACCCAUGUCGCUUACGUUGAGAAGGCAUUGACGUGU" ?
Result: 11.3 nM

Q: Param item = "GUAUAUACAUAGGAUAUGUCGGCCGGUUAUGCAACAGAAGGAUGUACAUGAGGAUCACCCAUGUCAAUUGGGAG" ; retrieve measured apparent Kd.
Result: 220 nM

Q: Give the measured apparent Kd of "GUAUCGGUUGAGAAGGCGGCGGAGACAUAACUUGGUCCCAACAUGAGGAUCACCCAUGUUAAAUCCGAGGAUAUCAACAAAGCC" .
Result: 18.9 nM

Q: Record request: apparent Kd value, item "UCCCAGCAAGGAUAUACAUGAAAAGGUAAAGAAGAAAAGAAACAUGAGGAUCACCCAUGUAGAAGGUGCAAGAG"
Result: 18.4 nM

Q: Could you tell me which apparent Kd is on file for "AAUAUUAACGUCAGGAUAUGCCAUUCCCGUUGGCGGCAGAAGGGACAUGAGGAUCACCCAUGUGAAAACGUCAC" ?
Result: 25.6 nM

Q: Would you mind telling me what apparent Kd value was observed for "CCGACACAGAAGAAGGCUUUUGGUCUUAGCAGAAGAGGAUAUUCCUGUGUUCCGCGUACAUGAGGAUCACCCAUGUGUGAGCAC" ?
Result: 7.46 nM

Q: Entry "CGAGCAAGAGGAUAUACGAAGACGGUAUGAGUCAACCUCAAACAUGAGGAUCACCCAUGUAGAAGGCUUCUCAU" : reported apparent Kd = ?
Result: 9.74 nM
